study target: T1, SNAP-GAL1R F177^ECL2A (human, UniProt P47211 1-349, F177^ECL2A, Lumi4-Tb on the SNAP tag)
T1 construct: also called F177A; source: HEK293, transfected, on cells; not shown: SNAP tag, N-terminal, kept
T1 sequence (looked up): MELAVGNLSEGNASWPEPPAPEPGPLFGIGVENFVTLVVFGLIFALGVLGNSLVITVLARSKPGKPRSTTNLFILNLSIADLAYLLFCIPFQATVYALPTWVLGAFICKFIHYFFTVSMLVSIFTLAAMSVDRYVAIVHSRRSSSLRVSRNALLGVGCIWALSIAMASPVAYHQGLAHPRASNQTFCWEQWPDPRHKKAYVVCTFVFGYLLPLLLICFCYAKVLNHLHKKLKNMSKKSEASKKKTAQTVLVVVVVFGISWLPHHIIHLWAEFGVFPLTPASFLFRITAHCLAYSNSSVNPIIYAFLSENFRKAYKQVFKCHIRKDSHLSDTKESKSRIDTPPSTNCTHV
protocol description: AlphaScreen or HTRF; saturation binding: HEK293 cells transfected with SNAP-tagged receptor (WT or mutant) and labelled with SNAP-Lumi4-Tb, incubated with increasing concentrations of galanin-A2 in the presence or absence of 100 uM unlabeled galanin, 1 h at room temperature; HTRF ratio 665 nm/620 nm
condition: one partner purified
assay endpoint: Kd (µM)
Express it in µM; write the number only.

Q: Quick one: Kd of GWTLNSAGYLLGPHAVGNHRSFSDKNGLTSC (dye A2 on the additional C-terminal cysteine, numbers count on: the mature protein; additional cysteine at the C-terminal end of the peptide, carries the dye A2; source: synthetic peptide (synthesized by Vazyme, China)) ?
Ans: 0.305
